Origin of measurements: DBAASP

// Escherichia coli ATCC 25922 MIC records
Only the number, expressed in µM, is required.

Give the reported value of MIC for this record: CC(C)C[C@H](NC(=O)[C@H](C)NC(=O)[C@@H](N)CO)C(=O)N[C@H](C(=O)NCC(=O)N[C@H]1CSSC[C@@H](C(=O)N[C@@H](Cc2ccccc2)C(=O)NCC(=O)N[C@@H](CCCN=C(N)N)C(=O)O)NC(=O)[C@@H]2CCCN2C(=O)[C@H](CCCCN)NC(=O)[C@@H]2CCCN2C(=O)[C@@H]2CCCN2C(=O)[C@H](Cc2c[nH]c3ccccc23)NC(=O)[C@H](CO)NC(=O)[C@H](CCCCN)NC(=O)[C@H]([C@@H](C)O)NC(=O)[C@H](Cc2c[nH]c3ccccc23)NC1=O)C(C)C
23.6

Hello, please tell me recorded MIC for this one: CC(C)C[C@H](NC(=O)[C@H](C)NC(=O)[C@H](CCCCN)NC(=O)CNC(=O)[C@H](CC(C)C)NC(=O)[C@H](CC(C)C)NC(=O)[C@H](CO)NC(=O)[C@H](CC(C)C)NC(=O)[C@H](CC(C)C)NC(=O)[C@H](CO)NC(=O)[C@H](CC(C)C)NC(=O)[C@H](CC(C)C)NC(=O)CN)C(N)=O
3.1

Name the recorded MIC of the item CC(C)C[C@H](NC(=O)[C@H](CCCN=C(N)N)NC(=O)[C@@H](NC(=O)[C@H](CCCN=C(N)N)NC(=O)[C@@H]1CCCN1C(=O)[C@H](CCCN=C(N)N)NC(=O)[C@H](CCCCN)NC(=O)[C@@H](N)CCC(N)=O)C(C)C)C(=O)N[C@@H](CO)C(=O)N[C@@H](C)C(=O)O in your answer.
64

Give recorded MIC. CC[C@H](C)[C@H](NC(=O)[C@H](CCCCN)NC(=O)[C@H](CCC(N)=O)NC(=O)[C@@H](NC(=O)[C@@H](NC(=O)[C@H](CCCCN)NC(=O)[C@H](CCCN=C(N)N)NC(=O)[C@H](Cc1ccccc1)NC(=O)CN)[C@@H](C)CC)C(C)C)C(=O)N[C@@H](CCCN=C(N)N)C(=O)N[C@@H](CC(=O)O)C(=O)N[C@@H](Cc1ccccc1)C(=O)N[C@@H](CC(C)C)C(=O)N[C@@H](CCCN=C(N)N)C(=O)N[C@@H](CC(N)=O)C(=O)N[C@@H](CC(C)C)C(=O)N[C@H](C(N)=O)C(C)C
4.4

Supply measured MIC of CC[C@H](C)[C@H](NC(=O)[C@H](Cc1ccccc1)NC(=O)[C@H](CCCCN)NC(=O)[C@H](CCCCN)NC(=O)[C@H](CCC(=O)O)NC(=O)[C@H](CC(N)=O)NC(=O)[C@H](Cc1ccc(O)cc1)NC(=O)[C@H](CCCCN)NC(=O)[C@H](CC(N)=O)NC(=O)[C@H](CC(C)C)NC(=O)[C@H](CCC(=O)O)NC(=O)[C@H](CC(N)=O)NC(=O)[C@H](CC(C)C)NC(=O)[C@H](Cc1ccccc1)NC(=O)[C@H](CO)NC(=O)[C@@H](N)[C@@H](C)O)C(=O)O in your reply.
31.4

----------
Quick record: MIC, Bacillus subtilis ATCC 9372.

Guide cases for MIC, answers given:
Compound: CC[C@H](C)[C@H](NC(=O)[C@@H](NC(=O)[C@H](CC(=O)O)NC(=O)[C@H](Cc1ccccc1)NC(=O)[C@H](CC(C)C)NC(=O)CN)C(C)C)C(=O)N[C@@H](CCCCN)C(=O)O
MIC: ≥ 1290 µM
--
Compound: CC(C)C[C@H](NC(=O)[C@H](CCC(=O)O)NC(=O)[C@@H](NC(=O)[C@H](CC(=O)O)NC(=O)[C@H](CCCCN)NC(=O)[C@H](CC(N)=O)NC(=O)[C@H](C)NC(=O)[C@H](CCCCN)NC(=O)[C@H](CCCCN)NC(=O)CNC(=O)[C@H](CCCCN)NC(=O)[C@@H](N)CO)C(C)C)C(=O)N[C@@H](C)C(=O)N[C@@H](CCCN=C(N)N)C(=O)NCC(=O)O
MIC: ≥ 100 µM
--
Compound: CC[C@H](C)[C@H](NC(=O)[C@@H](NC(=O)[C@H](CO)NC(=O)[C@H](C)NC(=O)[C@H](CCCCN)NC(=O)[C@@H](NC(=O)[C@@H](NC(=O)[C@H](CC(=O)O)NC(=O)[C@H](Cc1ccccc1)NC(=O)[C@H](CC(C)C)NC(=O)CN)C(C)C)[C@@H](C)CC)C(C)C)C(=O)NCC(=O)NCC(=O)N[C@@H](CC(C)C)C(=O)O
MIC: ≥ 737 µM

Now look at this one.
Answer with the recorded MIC for the compound listed here: CC(=O)N[C@@H](C)C(=O)N[C@@H](CCC(=O)O)C(=O)N[C@@H](CCCN=C(N)N)C(=O)N[C@H](C(=O)NCC(=O)N[C@@H](C)C(=O)NCC(=O)N[C@@H](C)C(=O)N1CCC[C@H]1C(=O)N[C@H](C(=O)N[C@@H](Cc1ccc(O)cc1)C(=O)N[C@@H](CC(C)C)C(N)=O)C(C)C)C(C)C
≥ 100 µM
